Target protein (sequence): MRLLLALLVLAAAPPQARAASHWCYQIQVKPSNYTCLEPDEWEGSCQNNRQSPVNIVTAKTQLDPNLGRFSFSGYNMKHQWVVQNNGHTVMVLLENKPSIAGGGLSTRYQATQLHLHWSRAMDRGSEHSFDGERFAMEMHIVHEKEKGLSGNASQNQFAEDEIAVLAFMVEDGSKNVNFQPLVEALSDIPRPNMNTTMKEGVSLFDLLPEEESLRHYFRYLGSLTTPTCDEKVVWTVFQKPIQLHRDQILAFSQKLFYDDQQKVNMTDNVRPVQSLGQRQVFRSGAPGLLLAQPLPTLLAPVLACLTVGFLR
pKi: −log10 of the molar value.
value.kind: pKi

Worked examples, 4 molecules total:
1. NS(=O)(=O)c1ccc(NC(=O)CN(CCN(CCN(CC(=O)O)CC(=O)Nc2ccc(S(N)(=O)=O)cc2Cl)CC(=O)O)CC(=O)O)c(Cl)c1; 7.57
2. NS(=O)(=O)c1nnc(NC(=O)CN(CCOCCOCCN(CC(=O)O)CC(=O)Nc2nnc(S(N)(=O)=O)s2)CC(=O)O)s1; 8.10
3. NS(=O)(=O)c1nc2ccc(OC(=O)CN(CCN(CC(=O)O)CC(=O)Oc3ccc4nc(S(N)(=O)=O)sc4c3)CC(=O)O)cc2s1; 8.10
4. NS(=O)(=O)c1ccc(NC(=O)CN(CCN(CCN(CC(=O)O)CC(=O)O)CC(=O)O)CC(=O)O)c(Br)c1; 7.57

I: NS(=O)(=O)c1nnc(NC(=O)CN(CC(=O)O)CC(=O)O)s1
II: Cn1nc(S(N)(=O)=O)s/c1=N/C(=O)CN(CCN(CC(=O)O)CC(=O)/N=c1/sc(S(N)(=O)=O)nn1C)CC(=O)O
III: NS(=O)(=O)c1ccc(CCOC(=O)CN(CCN(CCN(CC(=O)O)CC(=O)OCCc2ccc(S(N)(=O)=O)cc2)CC(=O)O)CC(=O)O)cc1
Q: Hey, quick one: sort these by pKi, largest value first please. Please reply with the labels ordered as requested. Many thanks.
Ans: II, III, I
(II: 7.77, III: 6.94, I: 6.62)
